assay: recombinant barcode read abundance after kanamycin selection (control-corrected) (log10(CPM+1)); higher = more efficient recombination; sequences stand for … in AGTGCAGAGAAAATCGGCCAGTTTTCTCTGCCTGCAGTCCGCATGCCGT…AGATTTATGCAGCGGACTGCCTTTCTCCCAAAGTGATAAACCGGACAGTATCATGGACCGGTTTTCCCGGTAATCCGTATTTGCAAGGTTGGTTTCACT; site = the 11-nt target;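 further: IS621 recombinase and bridge RNA in Escherichia coli cells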
A collection of sequences and their measured recombinant barcode read abundance (log10)
experimentalReadout: recombinant barcode read abundance (log10)

> print(dat)
                             sequencestring  reading
1  CCATAGGCTTGGGTTCTAACCTGTTGCTG (site CCATAGGCTCA)    0.732
2  TTCCGTCCTTGGGTTCTAACCTGTTGCTT (site CGAGTGACTTG)   0.0499
3  TACTGATCTTGGGTTCTAACCTGTTGCCT (site TACTGATCTAG)    0.461
4  TGGCCAACTTGGGTTCTAACCTGTTGCGT (site TGGCCAACTAC)     1.84
5  CTCCGTCCTTGGGTTCTAACCTGTTGCGT (site CTCCGTCCTAC)     2.54
